- System: SF-539 CNS
- assay-notes: NCI-60 one-dose screen, 48 h (100 = growth as untreated, 0 = no growth, -100 = all killed)
- condition-context: 10 µM unless noted
- Procedure: Cells are grown in 96 well plates and exposed to the test compound for 48 hours. Compounds are tested at a single concentration, which is 10^-5 M for most compounds. The reported endpoint is percent growth (GI% or GIPRCNT), where numbers from 0 - 100% represent growth inhibition, and numbers from -100% - 0 represent cell death. For example, a value of 40 represents 60% growth inhibition. A value of 0 means no net growth occurred over the course of the experiment. […]
This is part of a sample that, as a whole, favours compounds with a hit. Of some 83,000 tested, about 20% had one in any assay.
readout-name: growth (%)
# value in %; strip the unit string

## Input Value lookup for growth; key = CN(C)c1ccc(/C=C/C(=O)c2ccc(NC(N)=O)cc2)cc1
## Output 81.1

## Input Value lookup for growth; key = O=C(O)Cc1ccc(Cl)cc1
## Output 99.4

## Input Value lookup for growth; key = Clc1ncnc2nc[nH]c12
## Output 86.4

## Input Value lookup for growth; key = COc1cccc(C(=O)NNC(=O)c2cccc3ccccc23)c1
## Output 114

## Input Value lookup for growth; key = CCCCN(C(=O)CC)c1ccccc1
## Output 100

## Input Value lookup for growth; key = O=C(NCCc1ccccc1)/C(=C\c1ccc(Cl)cc1Cl)NC(=O)c1ccccc1
## Output 94.1

## Input Value lookup for growth; key = Cc1ccc(O)c(N)c1
## Output 103

## Input Value lookup for growth; key = O=CNCCc1ccccc1
## Output 115

## Input Value lookup for growth; key = Cn1c(=O)c2nc3c(=O)n(C)c(=O)n(C)c3nc2n(C)c1=O
## Output 91.7

## Input Value lookup for growth; key = COc1ccc(Br)c(C=O)c1
## Output 30.5

## Input Value lookup for growth; key = CCCCCCCCCCCCCC/C=C\C(CC(=O)O)C(=O)O (stereo not drawn)
## Output 108

## Input Value lookup for growth; key = O=c1nc(Nc2cccc(Cl)c2)oc2cc(Cl)oc(=O)c12
## Output 79.8

## Input Value lookup for growth; key = Cc1ccccc1CC(N)C(=O)O (stereo not drawn)
## Output 116

Each recorded value in this set is attributed to PubChem BioAssay (NCI).
